tested.system: NAD-dependent protein deacetylase sirtuin-2 (Homo sapiens, UniProt Q8IXJ6)
Sequence (Q8IXJ6 whole entry, the tested form may be a part): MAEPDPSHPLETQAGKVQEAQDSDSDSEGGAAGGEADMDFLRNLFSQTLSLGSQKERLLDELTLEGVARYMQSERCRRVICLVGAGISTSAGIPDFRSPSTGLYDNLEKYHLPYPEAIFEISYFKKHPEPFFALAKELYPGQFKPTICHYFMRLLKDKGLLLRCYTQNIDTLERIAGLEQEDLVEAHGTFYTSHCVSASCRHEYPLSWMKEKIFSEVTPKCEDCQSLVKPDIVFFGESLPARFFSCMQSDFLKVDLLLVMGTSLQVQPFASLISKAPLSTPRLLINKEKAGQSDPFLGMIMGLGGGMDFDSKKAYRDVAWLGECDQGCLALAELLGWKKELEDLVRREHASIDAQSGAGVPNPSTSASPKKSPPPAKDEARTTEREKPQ
method.notes: Inhibition of human Sirt2 (56 to 356 residues) demyristoylation expressed in Escherichia coli BL21 (DE3) using ZMML as substrate incubated for 4 hrs in presence of NAD+ by fluorescence based microplate reader assay
Exam item: assign Fulfilled to entries whose IC50 is below 20 µM and Not fulfilled to entries at or above 20 µM. Note that a value of exactly 20 µM receives Not fulfilled.

Example entries and their recorded answers appear below.
compound	class.assignment
COc1cccc(C(=O)Nc2ccc(-c3noc(CC4CCCN(Cc5cccc(F)c5C)C4)n3)cc2)c1 (stereo unspecified)	Not fulfilled
CC(=O)Nc1ccc(-c2noc(CC3CCCN(Cc4cccc(F)c4C)C3)n2)cc1 (stereo unspecified)	Fulfilled
Cc1c(F)cccc1CN1CCCC(Cc2nc(-c3ccc(N)cc3)no2)C1 (stereo unspecified)	Not fulfilled
Cc1c(F)cccc1CN1CCCC(Cc2nc(-c3ccc(NC(=S)Nc4ccccc4)cc3)no2)C1 (stereo unspecified)	Fulfilled
Cc1c(F)cccc1CN1CCCC(Cc2nc(-c3ccc(NC(=S)NCc4ccccc4)cc3)no2)C1 (stereo unspecified)	Fulfilled

Q: Say whether its IC50 is strictly beneath 20 µM. Entry: Cc1c(F)cccc1CN1CCCC(Cc2nc(-c3ccc(NC(=O)NCc4ccccc4)cc3)no2)C1 (stereo unspecified)
A: Fulfilled

Q: Would you mind doing COc1ccc(NC(=O)Nc2ccc(-c3noc(CC4CCCN(Cc5cccc(F)c5C)C4)n3)cc2)cc1 (stereo unspecified) as well?
A: Not fulfilled

* * *

tested.system: NAD-dependent protein deacetylase sirtuin-2 (Homo sapiens)
method.notes: Inhibition of human Sirt2 (56 to 356 residues) deacetylation expressed in Escherichia coli BL21 (DE3) using ZMAL as substrate incubated for 4 hrs in presence of NAD+ by fluorescence based microplate reader assay
Measured IC50 of individual entries
Only the number, expressed in µM, is required.

Solved cases (2 shown):
compound	unit.name	IC50
Cc1c(F)cccc1CN1CCCC(Cc2nc(-c3ccc(N)cc3)no2)C1 (stereo not given)	µM	17.8
Cc1c(F)cccc1CN1CCCC(Cc2nc(-c3ccc(NC(=O)c4ccc(Cl)s4)cc3)no2)C1 (stereo not given)	µM	0.67

Q: Any idea what its IC50 is? The compound is Cc1c(F)cccc1CN1CCCC(Cc2nc(-c3ccc(NC(=S)NCc4ccccc4)cc3)no2)C1 (stereo not given)
A: 0.64

Q: Would you mind doing Cc1c(F)cccc1CN1CCCC(Cc2nc(-c3ccc(NC(=O)Nc4ccccc4)cc3)no2)C1 (stereo not given) as well?
A: 0.21

Q: Would you mind doing COc1ccc(CC(=O)Nc2ccc(-c3noc(CC4CCCN(Cc5cccc(F)c5C)C4)n3)cc2)cc1 (stereo not given) as well?
A: 1.1

Q: Would you mind doing Cc1c(F)cccc1CN1CCCC(Cc2nc(-c3ccc(NC(=O)NCc4ccccc4)cc3)no2)C1 (stereo not given) as well?
A: 1.07

Q: Would you mind doing COc1cccc(C(=O)Nc2ccc(-c3noc(CC4CCCN(Cc5cccc(F)c5C)C4)n3)cc2)c1 (stereo not given) as well?
A: 0.88

Q: Would you mind doing Cc1c(F)cccc1CN1CCCC(Cc2nc(-c3ccc(NC(=S)Nc4ccccc4)cc3)no2)C1 (stereo not given) as well?
A: 0.9

Q: Would you mind doing COc1ccc(C(=O)Nc2ccc(-c3noc(CC4CCCN(Cc5cccc(F)c5C)C4)n3)cc2)cc1 (stereo not given) as well?
A: 0.43

Q: Would you mind doing COc1ccc(NC(=O)Nc2ccc(-c3noc(CC4CCCN(Cc5cccc(F)c5C)C4)n3)cc2)cc1 (stereo not given) as well?
A: 0.62
